MEASUREMENT_PROTOCOL: Acute toxicity (LD50) on CFLP and BDF1 mice
RUN_PARAMETERS: mouse, in vivo, ip
ASSAY_ENDPOINT: LD50 at 504 h (mg/kg)
Enter your answer as a number in mg/kg; do not include the unit.

Name the recorded LD50 at 504 h for "CO[C@@H]([C@H](OC)[C@H](O)COS(C)(=O)=O)[C@H](O)COS(C)(=O)=O" .
1000

###

Test system: Yoshida sc. sarcoma
MEASUREMENT_PROTOCOL: Comparison of the ED50 values on Yoshida sc. sarcoma of rats (transplanted solid tumor)
Format: in vivo, rat
RUN_PARAMETERS: Rattus norvegicus, ip; Yoshida sc. sarcoma of rats
Procedure: Our tests were performed on various transplantable mouse and rat tumors. The following tumor strains were applied: Rat: Yoshida sc. sarcoma The tests were always performed on animals of both sexes. At the beginning of the tests the average body weight of mice was 20 to 22 g, whereas that of rats 150 to 180 g. The animals were kept in plastic cages and fed with a standard laboratory animal feed (LATI, Godollo, Hungary). The animals received water ad libitum. […]
ASSAY_ENDPOINT: ED50 (mg/kg)
A number alone suffices; assume mg/kg.

Consider the following illustrative entries.
O[C@H]([C@H](O)[C@@H](O)CBr)[C@H](O)CBr [1,6-dibromo-1,6-dideoxy-dulcitol] : 50
CO[C@@H]([C@H](OC)[C@H](O)COS(C)(=O)=O)[C@H](O)COS(C)(=O)=O [compound of formula (I), 1,6-dimesyl-3,4-dimethyl-D-mannitol] : 20
O[C@@H]([C@H](O)[C@H](O)CBr)[C@H](O)CBr [1,6-dibromo-1,6-dideoxy-D-mannitol] : 490

Please find the next compound below.
Param readout= ED50; system= Yoshida sc. sarcoma; entry= CS(=O)(=O)OC[C@@H](O)[C@@H](O)[C@H](O)[C@H](O)COS(C)(=O)=O [1,6-Dimesyl-D-mannitol (Mannogranol), 1,6-dimesyl-D-mannitol] ; returns value.
500
